Would you kindly list ddG of mutation (higher = less stable) for each of these variants?
B1: Lysozyme C, P61626 (parent)
chain: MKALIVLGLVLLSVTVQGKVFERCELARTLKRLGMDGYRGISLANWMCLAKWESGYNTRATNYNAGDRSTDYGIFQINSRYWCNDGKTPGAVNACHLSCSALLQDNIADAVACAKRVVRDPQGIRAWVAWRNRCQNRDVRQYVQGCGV

- Variants of: B1
- condition-description: Homo sapiens; pH 2.7; 64.9 °C; Thermal; DSC; glycine 0.05 M; reversible: yes; structure 1LZ1; whole UniProt chain shown
# number then unit; no other words

Recorded result, `I77V` , ddG of mutation (higher = less stable): 1.1 kcal/mol

Recorded result, `I74M` , ddG of mutation (higher = less stable): 1.77 kcal/mol

Recorded result, `I74L` , ddG of mutation (higher = less stable): 0.1 kcal/mol

Recorded result, `I77T` , ddG of mutation (higher = less stable): 2.22 kcal/mol

Recorded result, `I77A` , ddG of mutation (higher = less stable): 1.72 kcal/mol

Recorded result, `I77F` , ddG of mutation (higher = less stable): 0.81 kcal/mol

Recorded result, `I74F` , ddG of mutation (higher = less stable): 4.09 kcal/mol

Recorded result, `I77S` , ddG of mutation (higher = less stable): 3.59 kcal/mol

Recorded result, `I74V` , ddG of mutation (higher = less stable): 1.2 kcal/mol

Recorded result, `I77Y` , ddG of mutation (higher = less stable): 3.78 kcal/mol

Recorded result, `I77L` , ddG of mutation (higher = less stable): 0 kcal/mol

Recorded result, `I74T` , ddG of mutation (higher = less stable): 3.63 kcal/mol

Recorded result, `I77G` , ddG of mutation (higher = less stable): 3.82 kcal/mol
